Assay system: HPK1 (Homo sapiens, UniProt Q92918)
Construct: A HiBiT tag was introduced by CRISPR on the N terminus of HPK1 in Jurkat cells; host or cells: Jurkat cells (ATCC TIB-152), monoclonal line with CRISPR knock-in of HiBiT at the endogenous HPK1 locus
Sequence (Q92918 whole entry): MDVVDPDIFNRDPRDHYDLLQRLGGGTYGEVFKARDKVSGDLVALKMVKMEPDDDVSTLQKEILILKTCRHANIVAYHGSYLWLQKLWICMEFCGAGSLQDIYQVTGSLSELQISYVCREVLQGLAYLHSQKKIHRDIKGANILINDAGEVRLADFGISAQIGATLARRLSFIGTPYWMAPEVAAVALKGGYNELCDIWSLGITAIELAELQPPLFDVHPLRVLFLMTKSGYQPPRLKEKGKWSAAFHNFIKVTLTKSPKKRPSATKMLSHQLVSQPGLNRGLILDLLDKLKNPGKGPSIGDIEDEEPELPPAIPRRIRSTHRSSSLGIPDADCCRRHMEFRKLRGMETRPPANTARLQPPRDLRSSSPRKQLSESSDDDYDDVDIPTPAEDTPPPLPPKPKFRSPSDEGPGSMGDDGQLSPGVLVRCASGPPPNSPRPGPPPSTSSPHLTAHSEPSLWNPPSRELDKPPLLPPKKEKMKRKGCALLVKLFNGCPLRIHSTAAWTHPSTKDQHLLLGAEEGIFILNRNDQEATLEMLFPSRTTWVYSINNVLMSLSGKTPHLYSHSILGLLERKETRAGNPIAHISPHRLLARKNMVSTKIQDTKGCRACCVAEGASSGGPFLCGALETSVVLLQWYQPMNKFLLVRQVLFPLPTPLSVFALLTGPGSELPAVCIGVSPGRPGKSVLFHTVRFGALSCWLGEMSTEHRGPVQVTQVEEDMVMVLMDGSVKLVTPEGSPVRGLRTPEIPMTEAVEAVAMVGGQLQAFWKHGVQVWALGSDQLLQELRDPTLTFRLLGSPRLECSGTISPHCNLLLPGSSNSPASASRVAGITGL
Assay summary: HPK1 Cellular HiBit Degradation Assay
Type: cell-based
Assay conditions: Jurkat, HiBiT HPK1 Jurkat cells, 24 hrs; maximum degradation vs DMSO vehicle control; read-out: Dmax Category
Listing: Dmax of selected compounds

Compound | Dmax
CC(C)n1cnc2cc(-c3ccc4c(c3)N([C@H]3C[C@@H](N5CCCCC5)C3)C(=O)C43CCN(C(=O)C4(C)CCN(C(=O)[C@H]5CC[C@H](Oc6ccc(C7CCC(=O)NC7=O)cc6)CC5)CC4)CC3)nc(NC3CC3)c21 (mixture of isomers) [Example 101] | 70 to 85%
CC(C)n1cnc2cc(-c3ccc4c(c3)N([C@H]3C[C@@H](N5CCCCC5)C3)C(=O)C43CCN(C(=O)C4CCN(C(=O)[C@H]5CC[C@H](Oc6ccc(C7CCC(=O)NC7=O)cc6)CC5)CC4)CC3)nc(Nc3ccccc3F)c21 (mixture of isomers) [Example 60] | 70 to 85%

Hello, the source for this data is patent US12091426B2, in case you need it.
